Molecular target: Toll-like receptor 7 (Homo sapiens (Human))
Assay: Toll-like receptor 7 in vitro receptor binding activity screen (HEK-blue hTLR7 cell, Quanti-Blue alkaline phosphatase readout)
Settings: 24 h incubation, read-out: TLR7 EC50
EC50 values for the compounds below.

State its EC50 on Toll-like receptor 7 (Homo sapiens (Human)): CCCCOc1nc(N)c2[nH]cc(Cc3ccc(CN4CCN(C)CC4)cc3)c2n1 1000 to 50000 nM

State its EC50 on Toll-like receptor 7 (Homo sapiens (Human)): CCCCOc1nc(N)c2[nH]cc(Cc3ccc(CN(CC)CC)cc3)c2n1 100 to 1000 nM

State its EC50 on Toll-like receptor 7 (Homo sapiens (Human)): CCCCOc1nc(N)c2[nH]cc(Cc3ccc(CN4CC(C)OC(C)C4)cc3)c2n1 (stereo not shown) 100 to 1000 nM

State its EC50 on Toll-like receptor 7 (Homo sapiens (Human)): CCCCOc1nc(N)c2[nH]cc(Cc3ccc(CN(C)C)cc3)c2n1 100 to 1000 nM

State its EC50 on Toll-like receptor 7 (Homo sapiens (Human)): CCCCOc1nc(N)c2[nH]cc(Cc3ccc(CN(CCC)CCC)cc3)c2n1 100 to 1000 nM

---

Biological target: Toll-like receptor 7 (Homo sapiens (Human), UniProt Q9NYK1)
Sequence (Q9NYK1 27-1049): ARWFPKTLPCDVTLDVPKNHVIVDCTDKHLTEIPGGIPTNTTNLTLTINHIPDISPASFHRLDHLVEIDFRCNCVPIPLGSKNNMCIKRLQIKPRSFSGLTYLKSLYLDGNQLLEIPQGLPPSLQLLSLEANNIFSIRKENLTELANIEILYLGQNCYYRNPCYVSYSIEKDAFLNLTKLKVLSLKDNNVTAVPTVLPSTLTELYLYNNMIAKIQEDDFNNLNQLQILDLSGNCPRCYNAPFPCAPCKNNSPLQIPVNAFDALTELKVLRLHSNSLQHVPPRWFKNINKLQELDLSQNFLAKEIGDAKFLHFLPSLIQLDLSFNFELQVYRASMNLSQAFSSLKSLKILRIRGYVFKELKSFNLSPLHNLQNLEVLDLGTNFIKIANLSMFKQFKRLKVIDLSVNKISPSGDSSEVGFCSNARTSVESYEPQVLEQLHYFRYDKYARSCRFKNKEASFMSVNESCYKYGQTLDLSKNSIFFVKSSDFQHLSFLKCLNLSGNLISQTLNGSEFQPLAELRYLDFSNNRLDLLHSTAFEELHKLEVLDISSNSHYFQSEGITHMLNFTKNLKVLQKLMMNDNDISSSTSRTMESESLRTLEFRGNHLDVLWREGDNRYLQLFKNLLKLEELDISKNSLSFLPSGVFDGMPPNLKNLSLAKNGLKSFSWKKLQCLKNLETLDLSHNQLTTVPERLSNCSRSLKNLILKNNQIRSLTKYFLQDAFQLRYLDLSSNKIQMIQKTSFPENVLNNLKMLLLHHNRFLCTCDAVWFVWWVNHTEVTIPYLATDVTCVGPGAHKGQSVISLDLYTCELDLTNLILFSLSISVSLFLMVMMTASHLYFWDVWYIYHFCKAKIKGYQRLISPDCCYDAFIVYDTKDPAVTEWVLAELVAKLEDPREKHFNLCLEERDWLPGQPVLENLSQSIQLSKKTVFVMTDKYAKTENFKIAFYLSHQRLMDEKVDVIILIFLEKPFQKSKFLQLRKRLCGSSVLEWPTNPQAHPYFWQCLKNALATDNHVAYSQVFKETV
Test: Toll-like receptor 7 in vitro receptor binding activity screen (HEK-blue hTLR7 cell, Quanti-Blue alkaline phosphatase readout)
Conditions: 24 h incubation, read-out: TLR7 EC50
pEC50: −log10 of the molar value.
pEC50 values for the molecules below.

Worked cases, pEC50 given:
CCCCOc1nc(N)c2[nH]cc(Cc3ccc(CN4CCCC4)cc3)c2n1    6.00 to 7.00
CCCCOc1nc(N)c2[nH]cc(Cc3ccc(CN4CCCN(C)CC4)cc3)c2n1    6.00 to 7.00
CCCCOc1nc(N)c2[nH]cc(Cc3ccc(CN4CCCCC4)cc3)c2n1    6.00 to 7.00
CCCCOc1nc(N)c2[nH]cc(Cc3ccc(CN4CCC4)cc3)c2n1    6.00 to 7.00

Query: pEC50; subject: CCCCOc1nc(N)c2[nH]cc(Cc3ccc(CN4CC(OC)C4)cc3)c2n1 6.00 to 7.00

Query: pEC50; subject: CCCCOc1nc(N)c2[nH]cc(Cc3ccc(CN4CCC(OC)CC4)cc3)c2n1 6.00 to 7.00

Query: pEC50; subject: CCCCOc1nc(N)c2[nH]cc(Cc3ccc(CN4CCC(F)C4)cc3)c2n1 (centres unmarked) 6.00 to 7.00

Query: pEC50; subject: CCCCOc1nc(N)c2[nH]cc(Cc3ccc(CN4CCOCC4)cc3)c2n1 4.30 to 6.00

Query: pEC50; subject: CCCCOc1nc(N)c2[nH]cc(Cc3ccc(CN4CCN(C(C)C)CC4)cc3)c2n1 6.00 to 7.00

Query: pEC50; subject: CCCCOc1nc(N)c2[nH]cc(Cc3ccc(CN4CCC(O)C4)cc3)c2n1 (centres unmarked) 6.00 to 7.00

Query: pEC50; subject: CCCCOc1nc(N)c2[nH]cc(Cc3ccc(CN4CCC(F)(F)C4)cc3)c2n1 4.30 to 6.00

Data provenance: patent US10654856B2
